test: Percent fluorescence of the ethidium bromide-DNA complex
endpoint_label: Fluoroscence

Reported Fluoroscence, compound `CN(C)CCCNc1c2c(nc3ccccc13)-c1ccccc1C2` : ____
5.45%

Reported Fluoroscence, compound `COc1cc(NS(C)(=O)=O)ccc1Nc1c2ccccc2nc2c3ccccc3n(C)c12` : ____
93.6%

Reported Fluoroscence, compound `COc1cc(NS(C)(=O)=O)ccc1Nc1c2ccccc2nc2ccccc12` : ____
63.7%

Reported Fluoroscence, compound COc1cc(NS(C)(=O)=O)ccc1Nc1c2c(nc3ccccc13)-c1ccccc1C2C (stereo unspecified) : ____
95.3%

Reported Fluoroscence, compound `COc1cc(NS(C)(=O)=O)ccc1Nc1c2c(nc3ccccc13)CCCC2` : ____
93.3%

Reported Fluoroscence, compound `COc1cc(NS(C)(=O)=O)ccc1Nc1c2ccccc2nc2c1sc1ccccc12` : ____
79.3%

Reported Fluoroscence, compound `COc1cc(NS(C)(=O)=O)ccc1Nc1c2c(nc3ccccc13)CCN(C)C2` : ____
104%

Reported Fluoroscence, compound `CN(C)CCCNc1c2c(nc3ccccc13)CCCC2` : ____
82%

Reported Fluoroscence, compound `COc1cc(NS(C)(=O)=O)ccc1Nc1c2c(nc3ccccc13)CCSC2` : ____
106%

Reported Fluoroscence, compound `COc1cc(NS(C)(=O)=O)ccc1Nc1c2c(nc3ccccc13)-c1ccccc1C2` : ____
67.6%

Reported Fluoroscence, compound `COc1cc(NS(C)(=O)=O)ccc1Nc1c2ccccc2nc2c1oc1ccccc12` : ____
81.4%

----------
test: Inhibition of KB cell growth in vitro; format: functional, cell-based; details: Homo sapiens
Assign IC50 to each entry below.
State the answer as a number, implicitly in µg/mL.

Reported IC50, compound `COc1cc(NS(C)(=O)=O)ccc1Nc1c2c(nc3ccccc13)CCSC2` : ____
46

Reported IC50, compound `COc1cc(NS(C)(=O)=O)ccc1Nc1c2c(nc3ccccc13)CCCC2` : ____
41

Reported IC50, compound `COc1cc(NS(C)(=O)=O)ccc1Nc1c2ccccc2nc2c3ccccc3n(C)c12` : ____
3.6

Reported IC50, compound `CN(C)CCCNc1c2c(nc3ccccc13)CCCC2` : ____
1.3

Reported IC50, compound COc1cc(NS(C)(=O)=O)ccc1Nc1c2c(nc3ccccc13)-c1ccccc1C2C (configuration not stated) : ____
15

Reported IC50, compound `CN(C)CCCNc1c2c(nc3ccccc13)CCN(C)C2` : ____
14

----------
Assign IC50 to each entry below.
experiment: Inhibition of KB cell growth in vitro; assay type: functional, cell-based; settings: Homo sapiens

Reported IC50, compound `COc1cc(NS(C)(=O)=O)ccc1Nc1c2c(nc3ccccc13)CCN(C)C2` : ____
> 100 µg/mL

Reported IC50, compound `CN(C)CCCNc1c2c(nc3ccccc13)-c1ccccc1C2` : ____
< 0.3 µg/mL

Reported IC50, compound `COc1cc(NS(C)(=O)=O)ccc1Nc1c2c(nc3ccccc13)-c1ccccc1C2` : ____
< 0.3 µg/mL

Reported IC50, compound `COc1cc(NS(C)(=O)=O)ccc1Nc1c2ccccc2nc2c1oc1ccccc12` : ____
< 0.3 µg/mL

Reported IC50, compound `COc1cc(NS(C)(=O)=O)ccc1Nc1c2ccccc2nc2c1sc1ccccc12` : ____
< 0.3 µg/mL

Reported IC50, compound `COc1cc(NS(C)(=O)=O)ccc1Nc1c2ccccc2nc2ccccc12` : ____
< 0.3 µg/mL
